# Target system: beta-klotho
# Assay method text: cell-based or functional assay
Measured parameter: In Vitro Activity EC50, ELK-luciferase assay (nM)

| Binder | Relation qualifier | Readout value |
| --- | --- | --- |
| FGF21(all K to all R, R175K), 2 x 20k PEG (ligand, two 20k PEG (amine-specific): N-terminus and Lys 175) MHPIPDSSPLLQFGGQVRQRYLYTDDAQQTEAHLEIREDGTVGGAADQSPESLLQLRALRPGVIQILGVRTSRFLCQRPDGALYGSLHFDPEACSFRELLLEDGYNVYQSEAHGLPLHLPGNRSPHRDPAPRGPARFLPLPGLPPAPPEPPGILAPQPPDVGSSDPLSMVGPSQGKSPSYAS | > | 1000 |
| FGF21(K56R/K69R/K122R), 2 x 20k PEG (ligand, two 20k PEG (amine-specific): N-terminus and the one remaining lysine (Lys 59)) MHPIPDSSPLLQFGGQVRQRYLYTDDAQQTEAHLEIREDGTVGGAADQSPESLLQLRALKPGVIQILGVRTSRFLCQRPDGALYGSLHFDPEACSFRELLLEDGYNVYQSEAHGLPLHLPGNRSPHRDPAPRGPARFLPLPGLPPAPPEPPGILAPQPPDVGSSDPLSMVGPSQGRSPSYAS | = | 215 |
| N-terminally PEGylated wild-type FGF21 (20 kDa PEG) (ligand, one 20 kDa PEG on the N-terminus (alpha-amino group)) MHPIPDSSPLLQFGGQVRQRYLYTDDAQQTEAHLEIREDGTVGGAADQSPESLLQLKALKPGVIQILGVKTSRFLCQRPDGALYGSLHFDPEACSFRELLLEDGYNVYQSEAHGLPLHLPGNKSPHRDPAPRGPARFLPLPGLPPAPPEPPGILAPQPPDVGSSDPLSMVGPSQGRSPSYAS | = | 43.3 |
